TGI values for the compounds below.
tested on: COLO 205 colon; test: NCI tumour cell line growth inhibition, 48 h
measured_quantity: TGI

[[record]]
compound = "CCCn1cc2c(=O)[nH]c(SC)nc2n1"
result = "> 100 µM"

[[record]]
compound = "Cc1cc(N(CCC#N)CCC#N)ccc1/C(N=Nc1ccc([N+](=O)[O-])cc1)=N\\NC(=O)c1cc(Cl)ccc1O"
result = "54.2 µM"

[[record]]
compound = "COc1ccc(/C=C2\\N=C(N3CCCC(CO)C3)NC2=O)cc1 (centres undefined)"
result = "> 100 µM"

[[record]]
compound = "NC1=Nc2ccccc2Sc2nncn21"
result = "> 100 µM"

[[record]]
compound = "CCCCN(CC)C(=O)C(=O)Cc1nc2ccc(C(=O)c3ccccc3)cc2[nH]c1=O"
result = "> 100 µM"

[[record]]
compound = "CCOC(=O)C1(C(=O)OCC)C(C(C)(C)C)=C(C)c2ccccc21"
result = "26.8 µM"

[[record]]
compound = "NCCCCC(NC(=O)C(N)CCCN=C(N)N)C(=O)NC(CCCCN)C(=O)NC(CCCN=C(N)N)C(=O)NC(CCCN=C(N)N)C(=O)NC(CCC(N)=O)C(=O)NC(CCCN=C(N)N)C(=O)NC(CCCN=C(N)N)C(=O)NC(CCCN=C(N)N)C(=O)NCC(=O)NCC(=O)O (centres undefined)"
result = "> 50 µM"

[[record]]
compound = "Cc1ccc2c(C(C[N+](=O)[O-])c3ccccc3)c(-c3ccccc3)[nH]c2c1 (centres undefined)"
result = "> 95 µM"

[[record]]
compound = "C#CC1(O)CCC2[C@@H]3CCc4cc(Oc5nc(F)nc(-c6c(C)c(C(=O)OCC)n7ccccc67)n5)ccc4C3CC[C@@]21C (some centres undefined)"
result = "> 100 µM"


###

tested on: SW-620 colon; assay: NCI tumour cell line growth inhibition, 48 h; in the data active = GI50 below about 0.43 µM; inactive = the rest
Possible outcomes: active, inactive

[[record]]
compound = "COc1cnc2c(c1)C(=O)c1c-2n(CCCN2CCCC2)c(=O)c2cc([N+](=O)[O-])ccc12"
experimental_target = "SW-620 colon"
cat = "active"

[[record]]
compound = "CCOC(=O)c1[nH]c2cc(Cl)ccc2c1[C@@H](C(=O)NC(C)(C)C)N(CC)C(=O)CCCCC#Cc1cccc2c1CN(C1CCC(=O)NC1=O)C2=O (some centres undefined)"
experimental_target = "SW-620 colon"
cat = "active"

[[record]]
compound = "COc1ccc2c(c1)CCC1C2CC[C@@]2(C)C1CC[C@@H]2NC(=O)Cc1ccc(O)c(O)c1 (some centres undefined)"
experimental_target = "SW-620 colon"
cat = "inactive"

[[record]]
compound = "COc1ccc2cc(-c3cnc4nonc4n3)ccc2c1"
experimental_target = "SW-620 colon"
cat = "inactive"


###

test system: DU-145 prostate; assay: NCI tumour cell line growth inhibition, 48 h
Overview of recorded TGI for various molecules
measured_quantity: TGI

[[record]]
molecule = "ClCc1nc2ccccc2[nH]1"
measured_quantity = "TGI"
result = "> 100 µM"

[[record]]
molecule = "CC1C(C)(C)C23CC12C1(OCCO1)C3Br (stereo unspecified)"
measured_quantity = "TGI"
result = "> 100 µM"

[[record]]
molecule = "Nc1ncnc2c1ncn2[C@H]1C=C[C@@H](NO)C1"
measured_quantity = "TGI"
result = "> 100 µM"

[[record]]
molecule = "CCOC(=O)c1c(O)cn2c1[nH]c1cccc3cccc2c31"
measured_quantity = "TGI"
result = "> 100 µM"

[[record]]
molecule = "Cc1ccc(OP(=O)(Oc2ccc(C)cc2)N2C=Cc3ccccc3C2C#N)cc1 (stereo unspecified)"
measured_quantity = "TGI"
result = "> 100 µM"

[[record]]
molecule = "Fc1cc(C2=Nn3c(COc4ccccc4Cl)nnc3S/C2=C\\c2ccc(Cl)cc2)c(Cl)cc1Cl"
measured_quantity = "TGI"
result = "81.7 µM"

